Items are presented alongside their recorded shrunken log2 fold change.
test system: Escherichia coli TOP10; assay: shrunken log2 fold change of peptide-encoding DNA abundance (4.5 h post-induction vs induction); higher = less antimicrobial activity (less host growth inhibition); conditions: time post-induction: 4.5 h; library: site-saturation at positions 5, 18, 19, 20;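 further: peptides expressed intracellularly from a pBAD plasmid library in pooled LB shake-flask culture, induced with 0.3% L-arabinose, DNA abundance read by NGS, three biological replicates, DESeq2 with apeglm shrinkage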
Recorded Metric: shrunken log2 fold change

>>> df
                   seq_text           tested_system  meas_value
 0  RRIRIRPPRLPRPRPRPGMSPRP  Escherichia coli TOP10       -0.15
 1  RRIRKRPPRLPRPRPRPDWYPRP  Escherichia coli TOP10      -0.149
 2  RRIRMRPPRLPRPRPRPTGVPRP  Escherichia coli TOP10       0.224
 3  RRIRKRPPRLPRPRPRPVFIPRP  Escherichia coli TOP10     -0.0138
 4  RRIRDRPPRLPRPRPRPKRQPRP  Escherichia coli TOP10     -0.0603
 5  RRIRSRPPRLPRPRPRPMLRPRP  Escherichia coli TOP10       0.123
 6  RRIRQRPPRLPRPRPRPYKMPRP  Escherichia coli TOP10      -0.292
 7  RRIRLRPPRLPRPRPRPNRCPRP  Escherichia coli TOP10      -0.231
 8  RRIRSRPPRLPRPRPRPQPEPRP  Escherichia coli TOP10      -0.279
 9  RRIRNRPPRLPRPRPRPNWCPRP  Escherichia coli TOP10        0.23
10  RRIRYRPPRLPRPRPRPHITPRP  Escherichia coli TOP10      -0.538
11  RRIRVRPPRLPRPRPRPKHSPRP  Escherichia coli TOP10      -0.189
12  RRIRMRPPRLPRPRPRPTRAPRP  Escherichia coli TOP10        1.42
13  RRIRHRPPRLPRPRPRPFPEPRP  Escherichia coli TOP10      -0.104
14  RRIRIRPPRLPRPRPRPIDCPRP  Escherichia coli TOP10      -0.145
15  RRIRVRPPRLPRPRPRPWMNPRP  Escherichia coli TOP10    -0.00133
16  RRIRMRPPRLPRPRPRPSVFPRP  Escherichia coli TOP10     -0.0403
17  RRIRSRPPRLPRPRPRPTRDPRP  Escherichia coli TOP10       0.701
18  RRIRVRPPRLPRPRPRPPFLPRP  Escherichia coli TOP10        1.11
19  RRIRPRPPRLPRPRPRPFARPRP  Escherichia coli TOP10       0.206
20  RRIRLRPPRLPRPRPRPDSKPRP  Escherichia coli TOP10       -0.24
21  RRIRDRPPRLPRPRPRPLMWPRP  Escherichia coli TOP10        2.47
22  RRIRSRPPRLPRPRPRPPWTPRP  Escherichia coli TOP10       0.319
23  RRIRQRPPRLPRPRPRPNGKPRP  Escherichia coli TOP10      -0.362
24  RRIRPRPPRLPRPRPRPECLPRP  Escherichia coli TOP10      0.0299
25  RRIRHRPPRLPRPRPRPGVMPRP  Escherichia coli TOP10     -0.0309
26  RRIRSRPPRLPRPRPRPIMCPRP  Escherichia coli TOP10      -0.572
27  RRIRKRPPRLPRPRPRPRQWPRP  Escherichia coli TOP10       0.263
28  RRIRQRPPRLPRPRPRPMMNPRP  Escherichia coli TOP10      -0.127
29  RRIRVRPPRLPRPRPRPDVPPRP  Escherichia coli TOP10     -0.0976
30  RRIRFRPPRLPRPRPRPERSPRP  Escherichia coli TOP10      0.0713
31  RRIRKRPPRLPRPRPRPTDAPRP  Escherichia coli TOP10        0.05
32  RRIRHRPPRLPRPRPRPRESPRP  Escherichia coli TOP10     -0.0496
33  RRIRWRPPRLPRPRPRPFTMPRP  Escherichia coli TOP10       -0.36
34  RRIRNRPPRLPRPRPRPSRCPRP  Escherichia coli TOP10       0.283
35  RRIRTRPPRLPRPRPRPHKTPRP  Escherichia coli TOP10      -0.035
36  RRIRSRPPRLPRPRPRPCMGPRP  Escherichia coli TOP10      -0.403
37  RRIRWRPPRLPRPRPRPHNGPRP  Escherichia coli TOP10      -0.349
38  RRIRFRPPRLPRPRPRPYRHPRP  Escherichia coli TOP10       -1.08
39  RRIRRRPPRLPRPRPRPMMTPRP  Escherichia coli TOP10       0.975
40  RRIRWRPPRLPRPRPRPNTLPRP  Escherichia coli TOP10      -0.359
41  RRIRLRPPRLPRPRPRPYMSPRP  Escherichia coli TOP10     -0.0167
42  RRIRDRPPRLPRPRPRPVYIPRP  Escherichia coli TOP10      -0.497
43  RRIRVRPPRLPRPRPRPVGRPRP  Escherichia coli TOP10       0.542
44  RRIRFRPPRLPRPRPRPMMLPRP  Escherichia coli TOP10      -0.139
45  RRIRARPPRLPRPRPRPNPWPRP  Escherichia coli TOP10       0.222
46  RRIRPRPPRLPRPRPRPRAWPRP  Escherichia coli TOP10      0.0147
